Reference source: the supplement of paper PMC11061612

This section presents compounds with their documented combination Emax values.
Test system: SF539 (Glioblastoma)
Assay: combination Emax (second highest fraction inhibited in the dose matrix, 72 h); higher = more inhibition; extreme values may be limits of the assay

{"compound": "O=C(c1cc(Cc2n[nH]c(=O)c3ccccc23)ccc1F)N1CCN(C(=O)C2CC2)CC1 [Olaparib] + COc1nnc2ccc(N3CCC(c4ccc(OCCN5CCN(C)C(=O)[C@H]5C)cc4)CC3)nn12 [AZD5153] (first compound max 10 µM, 7x7, partner max 1 µM)", "combination Emax": 0.642}
{"compound": "CC1(C)CCC(CN2CCN(c3ccc(C(=O)NS(=O)(=O)c4ccc(NCC5CCOCC5)c([N+](=O)[O-])c4)c(Oc4cnc5[nH]ccc5c4)c3)CC2)=C(c2ccc(Cl)cc2)C1 [Venetoclax] + CN(C)CCCOc1ccc(-c2ccc3ncc4c(c3c2)n(C2CCOCC2)c(=O)n4C)cn1 [AZD0156] (first compound max 1 µM, 7x7, partner max 1 µM)", "combination Emax": 0.292}
{"compound": "CC1(C)CCC(CN2CCN(c3ccc(C(=O)NS(=O)(=O)c4ccc(NCC5CCOCC5)c([N+](=O)[O-])c4)c(Oc4cnc5[nH]ccc5c4)c3)CC2)=C(c2ccc(Cl)cc2)C1 [Venetoclax] + COc1cc(Nc2ncc3c(n2)-c2ccc(Cl)cc2C(c2c(F)cccc2OC)=NC3)ccc1C(=O)O [Alisertib] (first compound max 1 µM, 7x7, partner max 10 µM)", "combination Emax": 0.454}
{"compound": "COc1cc2ncnc(Nc3ccc(F)c(Cl)c3)c2cc1OCCCN1CCOCC1 [Gefitinib] + CC(C)n1c(=O)n(C)c2cnc3cc(F)c(-c4ccc(OCCCN5CCCCC5)nc4)cc3c21 [AZD1390] (first compound max 10 µM, 7x7, partner max 0.3 µM)", "combination Emax": 0.143}

====

Test system: NB12 (Neuroblastoma)
Experiment: Bliss excess, mean over the matrix (fraction); higher = more synergy
This section presents molecules with their documented Bliss excess values.

{"molecule": "CC(=O)c1c(C)c2cnc(Nc3ccc(N4CCNCC4)cn3)nc2n(C2CCCC2)c1=O [Palbociclib] + Cc1c2c(nn1C)CSCc1cc(n(C)n1)CSc1cc(c3ccccc3c1)OCCCc1c(C(=O)O)n(C)c3c-2c(Cl)ccc13 [AZD5991] (first compound max 10 µM, 7x7, partner max 1 µM)", "Bliss excess": 0.0159}
{"molecule": "NC1(C(=O)N[C@@H](CCO)c2ccc(Cl)cc2)CCN(c2ncnc3[nH]ccc23)CC1 [Capivasertib] + CC(C)n1c(=O)n(C)c2cnc3cc(F)c(-c4ccc(OCCCN5CCCCC5)nc4)cc3c21 [AZD1390] (first compound max 10 µM, 7x7, partner max 0.3 µM)", "Bliss excess": 0.0009}
{"molecule": "CN(CCO)CC[C@H](CSc1ccccc1)Nc1ccc(S(=O)(=O)NC(=O)c2ccc(N3CCC([C@@H](O)c4ccccc4-c4ccc(Cl)cc4)CC3)cc2)cc1S(=O)(=O)C(F)(F)F [AZD4320] + CS(=O)(=O)CCNCc1ccc(-c2ccc3ncnc(Nc4ccc(OCc5cccc(F)c5)c(Cl)c4)c3c2)o1 [Lapatinib] (first compound max 1 µM, 7x7, partner max 10 µM)", "Bliss excess": 0.0902}

====

System: HSC-39 (Gastric Carcinoma)
Test: Bliss excess, mean over the matrix (fraction); higher = more synergy
Rule: Bliss excess under 0.01 gives false, otherwise true.

{"compound": "CC1(C)CCC(CN2CCN(c3ccc(C(=O)NS(=O)(=O)c4ccc(NCC5CCOCC5)c([N+](=O)[O-])c4)c(Oc4cnc5[nH]ccc5c4)c3)CC2)=C(c2ccc(Cl)cc2)C1 [Venetoclax] + Cn1cnc2c(F)c(Nc3ccc(Br)cc3Cl)c(C(=O)NOCCO)cc21 [Selumetinib] (first compound max 1 µM, 7x7, partner max 3 µM)", "class-assignment": "false"}
{"compound": "C[C@@H](Oc1cc(-c2cnn(C3CCNCC3)c2)cnc1N)c1c(Cl)ccc(F)c1Cl [Crizotinib] + CC1=C(C(=CC=C1)Cl)NC(=O)C2=CN=C(S2)NC3=CC(=NC(=N3)C)N4CCN(CC4)CCO [Dasatinib] (first compound max 10 µM, 7x7, partner max 2 µM)", "class-assignment": "false"}
{"compound": "N#Cc1cnc(Nc2cc(NC[C@H]3CNCCO3)c(C(F)(F)F)cn2)cn1 [SRA737] + Nc1ccn([C@@H]2O[C@H](CO)[C@@H](O)C2(F)F)c(=O)n1 [Gemcitabine] (first compound max 10 µM, 7x7, partner max 0.3 µM)", "class-assignment": "true"}
{"compound": "COc1cccc(OCCCN)c1-c1cc(Nc2cnc(C#N)cn2)n[nH]1 [Prexasertib] + CN(C)CCCOc1ccc(-c2ccc3ncc4c(c3c2)n(C2CCOCC2)c(=O)n4C)cn1 [AZD0156] (first compound max 1 µM, 7x7, partner max 1 µM)", "class-assignment": "false"}
{"compound": "Cc1c2c(nn1C)CSCc1cc(n(C)n1)CSc1cc(c3ccccc3c1)OCCCc1c(C(=O)O)n(C)c3c-2c(Cl)ccc13 [AZD5991] + C1CN(CCC1(C(=O)N[C@@H](CCO)C2=CC=C(C=C2)Cl)N)C3=NC=NC4=C3C=CN4 [Capivasertib] (first compound max 1 µM, 7x7, partner max 3 µM)", "class-assignment": "true"}
{"compound": "Cc1c2c(nn1C)CSCc1cc(n(C)n1)CSc1cc(c3ccccc3c1)OCCCc1c(C(=O)O)n(C)c3c-2c(Cl)ccc13 [AZD5991] + CCN(CCO)CCCOc1ccc2c(Nc3cc(CC(=O)Nc4cccc(F)c4)[nH]n3)ncnc2c1 [AZD2811] (first compound max 1 µM, 7x7, partner max 1 µM)", "class-assignment": "true"}

====

Tested on: SF268 (Low Grade Glioma)
Assay: Bliss excess, mean over the matrix (fraction); higher = more synergy

{"compound": "CN(C)CCCOc1ccc(-c2ccc3ncc4c(c3c2)n(C2CCOCC2)c(=O)n4C)cn1 [AZD0156] + C[C@@H]1COCCN1C2=NC(=NC(=C2)C3(CC3)[S@](=N)(=O)C)C4=C5C=CNC5=NC=C4 [AZD6738] (first compound max 1 µM, 7x7, partner max 10 µM)", "Bliss excess": -0.0359}
{"compound": "Cc1cc2ncnn2cc1Nc1ncc2c(n1)n(C1CCOCC1)c(=O)n2C [AZD7648] + C[C@@H]1COCCN1C2=NC(=NC(=C2)C3(CC3)[S@](=N)(=O)C)C4=C5C=CNC5=NC=C4 [AZD6738] (first compound max 10 µM, 7x7, partner max 10 µM)", "Bliss excess": 0.0152}
{"compound": "Cc1c2c(nn1C)CSCc1cc(n(C)n1)CSc1cc(c3ccccc3c1)OCCCc1c(C(=O)O)n(C)c3c-2c(Cl)ccc13 [AZD5991] + C=CCn1c(=O)c2cnc(Nc3ccc(N4CCN(C)CC4)cc3)nc2n1-c1cccc(C(C)(C)O)n1 [AZD1775] (first compound max 1 µM, partner max 1 µM)", "Bliss excess": 0.0045}
{"compound": "CCN(CCO)CCCOc1ccc2c(Nc3cc(CC(=O)Nc4cccc(F)c4)[nH]n3)ncnc2c1 [AZD2811] + C=CCn1c(=O)c2cnc(Nc3ccc(N4CCN(C)CC4)cc3)nc2n1-c1cccc(C(C)(C)O)n1 [AZD1775] (first compound max 1 µM, partner max 1 µM)", "Bliss excess": -0.0005}

====

This section presents compounds with their documented Bliss excess values.
System: VAL (B-Cell Non-Hodgkin's Lymphoma)
Experiment: Bliss excess, mean over the matrix (fraction); higher = more synergy

{"compound": "COc1cc2c(cc1OCCCCCOc1cc3c(cc1OC)C(=O)N1C=C(C)C[C@H]1C=N3)N=C[C@@H]1CC(C)=CN1C2=O [SG3199] + O=C(c1cc(Cc2n[nH]c(=O)c3ccccc23)ccc1F)N1CCN(C(=O)C2CC2)CC1 [Olaparib] (first compound max 0.001 µM, 7x7, partner max 10 µM)", "Bliss excess": -0.0069}
{"compound": "Cc1nc(Nc2ncc(C(=O)Nc3c(C)cccc3Cl)s2)cc(N2CCN(CCO)CC2)n1 [Dasatinib] + CC(=O)Nc1cccc(-n2c(=O)n(C3CC3)c(=O)c3c(Nc4ccc(I)cc4F)n(C)c(=O)c(C)c32)c1 [Trametinib] (first compound max 2 µM, 7x7, partner max 1 µM)", "Bliss excess": -0.0543}
{"compound": "Cc1c2c(nn1C)CSCc1cc(n(C)n1)CSc1cc(c3ccccc3c1)OCCCc1c(C(=O)O)n(C)c3c-2c(Cl)ccc13 [AZD5991] + C=CCn1c(=O)c2cnc(Nc3ccc(N4CCN(C)CC4)cc3)nc2n1-c1cccc(C(C)(C)O)n1 [AZD1775] (first compound max 1 µM, partner max 1 µM)", "Bliss excess": -0.114}
